pKi: −log10 of the molar value.
Record type: pKi measurement. Applies to: UniProt Q13639
Sequence (Q13639 whole entry): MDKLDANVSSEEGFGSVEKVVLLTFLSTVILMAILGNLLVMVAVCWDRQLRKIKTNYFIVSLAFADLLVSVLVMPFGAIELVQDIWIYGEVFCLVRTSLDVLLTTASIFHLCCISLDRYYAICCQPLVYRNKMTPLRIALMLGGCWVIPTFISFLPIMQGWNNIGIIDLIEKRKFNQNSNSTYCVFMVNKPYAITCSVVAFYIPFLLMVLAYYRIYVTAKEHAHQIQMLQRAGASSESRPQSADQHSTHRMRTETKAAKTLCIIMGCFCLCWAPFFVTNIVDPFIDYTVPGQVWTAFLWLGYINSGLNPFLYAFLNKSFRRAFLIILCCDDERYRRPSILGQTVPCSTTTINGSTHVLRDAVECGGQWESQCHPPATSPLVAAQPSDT

[
  {
    "molecule": "COc1cc(N)c(Cl)cc1C(=O)NC1CN2CCC1CC2 (configuration not stated) [ZACOPRIDE,R]",
    "inequalitySymbol": "<",
    "pKi": 5.00
  },
  {
    "molecule": "Cn1cc(C(=O)OCC2CCN(CCNS(C)(=O)=O)CC2)c2ccccc21 [GR 113808]",
    "inequalitySymbol": "=",
    "pKi": 10.15
  }
]

All values here come from BindingDB's records for doi:10.1046/j.1471-4159.1998.70062252.x.
